I'd be grateful if you could share measured cell viability for these entries.
# Test system: MOLM14
# PROCEDURE_DETAILS: cell viability relative to vehicle control; higher = less cytotoxic;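 also: after 48 h exposure read by CellTiter-Glo luminescence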
# ASSAY_CONTEXT: 10 µM; SRSF2 genotype: SRSF2 wt/wt
Express the result in % but write the number alone.

Query: Please look up its cell viability: "CCOC(=O)c1c2c3c(cccc3[nH]c1=O)C(=O)c1ccccc1-2"
Reply: 95.8

Query: Consider next the molecule "Oc1ccc(Cc2nc3c(Cc4ccccc4)nc(-c4ccc(O)cc4)cn3c2O)cc1" in the same way.
Reply: 97

Query: Consider next the molecule "O=C(O)C(Cc1ccccc1[N+](=O)[O-])=NNc1nc(-c2ccc(Cl)c(Cl)c2)cs1" in the same way.
Reply: 92.2

Query: Consider next the molecule "O=C1NC(=NCc2cccs2)S/C1=C\c1ccc2ncccc2c1" in the same way.
Reply: 41.1

Query: Consider next the molecule "O=c1c(-n2ccnn2)c[nH]n1-c1cc(N2CCOCC2)ncn1" in the same way.
Reply: 93.6

Query: Consider next the molecule NC(=O)c1ccccn1 [Picolinamide] in the same way.
Reply: 106

Query: Consider next the molecule COC(=O)c1ccc(O)c(O)c1 [Methyl protocatechuate] in the same way.
Reply: 109

Query: Consider next the molecule "OCCN1C[C@H](O)[C@@H](O)[C@H](O)[C@H]1CO" in the same way.
Reply: 106

Query: Consider next the molecule O=C(c1ccccc1)C(O)O [Phenylglyoxal hydrate] in the same way.
Reply: 66

Query: Consider next the molecule "CC(C)=CCC/C(C)=C/Cc1c(O)c(CC=C(C)C)c2c(c1O)C(=O)C1=C[C@@H]3C[C@H]4C(C)(C)O[C@@](C/C=C(/C)C(=O)O)(C3=O)[C@@]14O2" in the same way.
Reply: 0.27

====

I'd be grateful if you could share measured cell viability for these entries.
# Tested on: MARIMO
# PROCEDURE_DETAILS: cell viability relative to vehicle control; higher = less cytotoxic
# ASSAY_CONTEXT: 10 µM; SRSF2 genotype: SRSF2 wt/wt
Express the result in % but write the number alone.

Query: Please look up its cell viability: "C1CNCCNCCNCCN1"
Reply: 111

Query: Consider next the molecule "CN(C)CCSSCCNC(=O)C1CCN(C(=O)CSc2ccc(Cl)cc2)CC1" in the same way.
Reply: 86.9

Query: Consider next the molecule "Cn1cc(/C=C/C(=O)c2cccc(F)c2)cc1/C=C/C(=O)NO" in the same way.
Reply: 72.4

Query: Consider next the molecule CCNC(=O)[C@@H]1CCCN1C(=O)[C@H](CCCN=C(N)N)NC(=O)[C@H](CC(C)C)NC(=O)[C@@H](CC(C)C)NC(=O)[C@H](Cc1ccc(O)cc1)NC(=O)[C@H](CO)NC(=O)[C@H](Cc1c[nH]c2ccccc12)NC(=O)[C@H](Cc1cnc[nH]1)NC(=O)[C@@H]1CCC(=O)N1 [S3718 Leuprolide Acetate.cdx] in the same way.
Reply: 112

Query: Consider next the molecule CO/N=C(\C(=O)N[C@@H]1C(=O)N2C(C(=O)O)=C(CSc3nc(C)c(CC(=O)O)s3)CS[C@H]12)c1csc(N)n1 [Cefodizime Sodium] in the same way.
Reply: 112

Query: Consider next the molecule CC(C)Cc1ccc([C@@H](C)C(=O)NS(C)(=O)=O)cc1 [Reparixin (Repertaxin)] in the same way.
Reply: 99.2

Query: Consider next the molecule "O=C(OC[C@H]1O[C@@H](OC(=O)c2cc(O)c(O)c(OC(=O)c3cc(O)c(O)c(O)c3)c2)[C@H](OC(=O)c2cc(O)c(O)c(OC(=O)c3cc(O)c(O)c(O)c3)c2)[C@@H](OC(=O)c2cc(O)c(O)c(OC(=O)c3cc(O)c(O)c(O)c3)c2)[C@@H]1OC(=O)c1cc(O)c(O)c(OC(=O)c2cc(O)c(O)c(O)c2)c1)c1cc(O)c(O)c(OC(=O)c2cc(O)c(O)c(O)c2)c1" in the same way.
Reply: 99.3

Query: Consider next the molecule "CCOC(=O)c1csc(Nc2ccc(Cl)cc2)n1" in the same way.
Reply: 92.8

====

I'd be grateful if you could share measured cell viability for these entries.
# System: MOLM14
# PROCEDURE_DETAILS: cell viability relative to vehicle control; higher = less cytotoxic
# ASSAY_CONTEXT: 10 µM; SRSF2 genotype: SRSF2 wt/wt
Express the result in % but write the number alone.

Query: Please look up its cell viability: C[C@H]1COC2(CCN(c3nc(=O)c4cc(C(F)(F)F)cc([N+](=O)[O-])c4s3)CC2)O1 (racemic) [BTZ043 racemate]
Reply: 85.3

Query: Consider next the compound CC(C)=CCC[C@](C)(O[C@@H]1O[C@H](CO)[C@@H](O)[C@H](O)[C@H]1O)[C@H]1CC[C@]2(C)[C@@H]1[C@H](O)C[C@@H]1[C@@]3(C)CC[C@H](O)C(C)(C)[C@@H]3CC[C@]12C [Ginsenoside CK] in the same way.
Reply: 95

Query: Consider next the compound "Cc1cc(Nc2ccc(NC(=O)c3ccc(Nc4ccnc5ccccc45)cc3)cc2)nc(N)n1" in the same way.
Reply: 0.25

Query: Consider next the compound "Nc1nc(NC2CC2)cc(-c2cccc(Cl)c2Cl)n1" in the same way.
Reply: 21.5

Query: Consider next the compound "O=S(=O)(c1ccccc1)N(CC(F)(F)F)c1ccc(C(O)(C(F)(F)F)C(F)(F)F)cc1" in the same way.
Reply: 65.2

Query: Consider next the compound CCOC(=O)/C=C/c1ccc(O)c(O)c1 [Ethyl caffeate] in the same way.
Reply: 78.1

Query: Consider next the compound "C[C@]12C=CC(=O)C=C1CC[C@H]1[C@@H]3C[C@@H](O)[C@](O)(C(=O)CO)[C@@]3(C)C[C@H](O)[C@@]12F" in the same way.
Reply: 98.3

Query: Consider next the compound "NS(=O)(=O)c1ccc(NC(=S)N2CCN(CC=Cc3ccccc3)CC2)cc1" in the same way.
Reply: 99.2

Query: Consider next the compound "COc1ccc(S(=O)(=O)Nc2nc(-c3cccc([N+](=O)[O-])c3)cs2)cc1OC" in the same way.
Reply: 100

Query: Consider next the compound "CCCCOc1ccc(C(=O)Nc2ccc(F)cc2F)cc1" in the same way.
Reply: 110

Query: Consider next the compound "CC(C)NC[C@@H](C(=O)N1CCN(c2ncnc3c2[C@H](C)C[C@H]3O)CC1)c1ccc(Cl)cc1" in the same way.
Reply: 56.6

Query: Consider next the compound "CC(C)=CCC/C(C)=C/C=O" in the same way.
Reply: 94.8

Query: Consider next the compound "CNc1ncc2cc(-c3cc(NC(=O)NCCC(C)(C)C)c(F)cc3C)c(C)nc2n1" in the same way.
Reply: 23.9

====

# Tested on: K562
# PROCEDURE_DETAILS: cell viability relative to vehicle control; higher = less cytotoxic
# ASSAY_CONTEXT: 10 µM; SRSF2 genotype: SRSF2 wt/wt
EXPERIMENTAL_READOUT: cell viability
Returns: string containing the numeric result and its unit.

Query: K562 / cell viability / "Cc1ccc2oc(=O)ccc2c1" : value?
Reply: 91.3%

Query: Consider next the compound "O=S(=O)(NC1CCCCC1)c1ccc2c(c1)C(=NO)c1cc(S(=O)(=O)NC3CCCCC3)ccc1-2" in the same way.
Reply: 92.3%

Query: Consider next the compound O=C(O)CCCC[C@@H]1CCSS1 (racemic) in the same way.
Reply: 88.3%

Query: Consider next the compound COc1cc2c(cc1O)CC[n+]1cc3c(OC)c(OC)ccc3cc1-2 [Jatrorrhizine chloride] in the same way.
Reply: 90.3%

====

# Test system: K562
# PROCEDURE_DETAILS: cell viability relative to vehicle control; higher = less cytotoxic
# ASSAY_CONTEXT: 10 µM; SRSF2 genotype: SRSF2 wt/wt
I'd be grateful if you could share measured cell viability for these entries.
Express the result in % but write the number alone.

Query: Please look up its cell viability: NC(=O)c1cccc2[nH]c(-c3ccc(C4CCCN4)cc3F)nc12 (centres undefined)
Reply: 80.1

Query: Consider next the compound CC1CNc2c(cccc2S(=O)(=O)N[C@@H](CCCNC(=N)N)C(=O)N2CC[C@@H](C)C[C@@H]2C(=O)O)C1 (some centres undefined) [Argatroban Monohydrate] in the same way.
Reply: 96.2

Query: Consider next the compound CNCCc1ccccn1 [Betahistine] in the same way.
Reply: 102

Query: Consider next the compound c1ccc(Cn2c(-c3ccc(OCC(C4CCNCC4)n4c(-c5ccccc5)nc5ccccc54)cc3)nc3ccccc32)cc1 (centres undefined) in the same way.
Reply: 0.44

====

# Tested on: MOLM14
# PROCEDURE_DETAILS: cell viability relative to vehicle control; higher = less cytotoxic
# ASSAY_CONTEXT: 10 µM; SRSF2 genotype: SRSF2 P95H/wt
Counter-ions that a name gives are not always drawn.
EXPERIMENTAL_READOUT: cell viability (%)
Express the result in % but write the number alone.

Query: Please look up its cell viability: "O=C(Nc1c[nH]nc1-c1nc2ccc(CN3CCOCC3)cc2[nH]1)NC1CC1"
Reply: 1.54

Query: Consider next the compound C[C@@H]1O[C@@H](O[C@H]2[C@H](Oc3cc(O)c(C(=O)CCc4ccc(O)cc4)c(O)c3)O[C@H](CO)[C@@H](O)[C@@H]2O)[C@H](O)[C@H](O)[C@H]1O [Naringin Dihydrochalcone (Naringin DC)] in the same way.
Reply: 98.4

Query: Consider next the compound CCCc1nn(C)c2c(=O)[nH]c(-c3cc(S(=O)(=O)N4CCN(C)CC4)ccc3OCC)nc12 [Sildenafil citrate] in the same way.
Reply: 108

Query: Consider next the compound "C[C@@H]1[C@H]2c3cc4c(cc3O[C@@]35OCOC3=CC(=O)[C@H](C[C@H]1C)[C@@H]25)OCO4" in the same way.
Reply: 55.1

Query: Consider next the compound "CN(CCN1CCC(OC(=O)Nc2ccccc2-c2ccccc2)CC1)C(=O)c1ccc(CN2CCC(C(N)=O)CC2)cc1" in the same way.
Reply: 87.1

Query: Consider next the compound C[n+]1c2n(c(=O)c3ccccc31)CCc1c-2[nH]c2ccccc12 [Dehydroevodiamine hydrochloride] in the same way.
Reply: 92.8

Query: Consider next the compound OCc1cc([C@@H](O)CNCCCCCCOCCOCc2c(Cl)cccc2Cl)ccc1O [Vilanterol Trifenate] in the same way.
Reply: 72.8

These data points were gathered from the supplement of paper PMC10981050.
